Entries and their measured inhibition at 1 µM follow.
- Subject Of Test: A₂ receptor (Rattus norvegicus)
- Construct: from tissue; host or cells: rat corpus striatum membrane preparation
- Sequence (P30543 whole entry): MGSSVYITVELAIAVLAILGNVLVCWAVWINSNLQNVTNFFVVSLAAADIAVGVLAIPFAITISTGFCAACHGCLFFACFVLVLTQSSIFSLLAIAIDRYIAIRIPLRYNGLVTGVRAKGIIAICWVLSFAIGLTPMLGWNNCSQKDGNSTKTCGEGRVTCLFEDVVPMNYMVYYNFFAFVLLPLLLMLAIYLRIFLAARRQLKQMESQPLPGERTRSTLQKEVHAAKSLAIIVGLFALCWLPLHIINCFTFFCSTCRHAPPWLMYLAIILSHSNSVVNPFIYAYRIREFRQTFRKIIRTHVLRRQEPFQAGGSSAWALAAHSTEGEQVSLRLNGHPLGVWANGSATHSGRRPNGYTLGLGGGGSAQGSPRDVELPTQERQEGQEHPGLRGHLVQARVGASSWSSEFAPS
- Protocol Summary: Adenosine A₂ receptor binding test (³H-NECA binding)
- Measurement Setup: 10⁻⁶M; ³H-NECA binding, rat corpus striatum; read-out: Inhibition (%) A₂ Receptor

[
  {
    "Compound": "CCn1c(=O)c2c(nc(/C=C/c3ccc(OC)c(Br)c3)n2C)n(CC)c1=O",
    "Subject Of Test": "A₂ receptor (Rattus norvegicus)",
    "inhibition at 1 µM": "92%"
  },
  {
    "Compound": "CCn1c(=O)c2c(nc(/C=C/c3cc(C)ccc3C)n2C)n(CC)c1=O",
    "Subject Of Test": "A₂ receptor (Rattus norvegicus)",
    "inhibition at 1 µM": "93%"
  },
  {
    "Compound": "COc1ccc(/C=C/c2nc3c(c(=O)n(C)c(=O)n3C)n2C)c(OC)c1 [Compound 28, (E)-8-(2,4-Dimethoxystyryl)caffeine]",
    "Subject Of Test": "A₂ receptor (Rattus norvegicus)",
    "inhibition at 1 µM": "80%"
  }
]

====

- System: Haloperidol-Induced Catalepsy
- Protocol Summary: Effect on haloperidol-induced catalepsy
- Assay type: in vivo, mice
- Measurement Setup: rate of decrease in total score based on control group; 10 mg/kg orally
Response field label takes true when Remission Rate (%) is strictly below 30% and false in all other cases.

[
  {
    "Molecule": "CCn1c(=O)c2c(nc(/C=C/c3ccc(OC)c(C)c3C)n2C)n(CC)c1=O",
    "Assigned Label": "false"
  },
  {
    "Molecule": "COc1ccc(/C=C/c2nc3c(c(=O)n(C)c(=O)n3C)n2C)c(OC)c1OC [Compound 20, (E)-8-(2,3,4-Trimethoxystyryl)caffeine]",
    "Assigned Label": "false"
  },
  {
    "Molecule": "CCCOc1ccc(/C=C/c2nc3c(c(=O)n(CC)c(=O)n3CC)n2C)cc1",
    "Assigned Label": "false"
  },
  {
    "Molecule": "CCn1c(=O)c2c(nc(/C=C/c3ccc(Br)cc3)n2C)n(CC)c1=O",
    "Assigned Label": "true"
  },
  {
    "Molecule": "CCn1c(=O)c2c(nc(/C=C/c3ccc(OC)c(C)c3OC)n2C)n(CC)c1=O",
    "Assigned Label": "false"
  },
  {
    "Molecule": "CCn1c(=O)c2c(nc(/C=C/c3ccc(OC)c(OC)c3Cl)n2C)n(CC)c1=O",
    "Assigned Label": "true"
  },
  {
    "Molecule": "COc1ccc(/C=C/c2nc3c(c(=O)n(C)c(=O)n3C)n2C)c(OC)c1C",
    "Assigned Label": "false"
  },
  {
    "Molecule": "CCn1c(=O)c2c(nc(/C=C/c3ccc(OC)c(OC)c3)n2C)n(CC)c1=O",
    "Assigned Label": "false"
  },
  {
    "Molecule": "CCn1c(=O)c2c(nc(/C=C/c3ccc(O)c(O)c3)n2C)n(CC)c1=O",
    "Assigned Label": "true"
  },
  {
    "Molecule": "CCn1c(=O)c2c(nc(/C=C/c3ccc(F)c(F)c3)n2C)n(CC)c1=O",
    "Assigned Label": "true"
  },
  {
    "Molecule": "CCn1c(=O)c2c(nc(/C=C/c3cccc(OC)c3[N+](=O)[O-])n2C)n(CC)c1=O",
    "Assigned Label": "false"
  },
  {
    "Molecule": "CCOc1ccc(/C=C/c2nc3c(c(=O)n(CC)c(=O)n3CC)n2C)cc1",
    "Assigned Label": "false"
  },
  {
    "Molecule": "CCn1c(=O)c2c(nc(/C=C/c3cc(OC)c4c(c3)OCO4)n2C)n(CC)c1=O",
    "Assigned Label": "false"
  },
  {
    "Molecule": "CCn1c(=O)c2c(nc(/C=C/c3ccc4c(c3)OCO4)n2C)n(CC)c1=O",
    "Assigned Label": "false"
  },
  {
    "Molecule": "CCn1c(=O)c2c(nc(/C=C/c3cccc(OC)c3)n2C)n(CC)c1=O",
    "Assigned Label": "false"
  },
  {
    "Molecule": "COc1ccc(/C=C/c2nc3c([nH]2)c(=O)n(C)c(=O)n3C)c(OC)c1C",
    "Assigned Label": "false"
  },
  {
    "Molecule": "CCn1c(=O)c2[nH]c(/C=C/c3cccc(OC)c3[N+](=O)[O-])nc2n(CC)c1=O",
    "Assigned Label": "false"
  },
  {
    "Molecule": "CCn1c(=O)c2c(nc(/C=C/c3ccc(O)cc3)n2C)n(CC)c1=O",
    "Assigned Label": "false"
  },
  {
    "Molecule": "CCn1c(=O)c2c(nc(/C=C/c3cc(C)ccc3C)n2C)n(CC)c1=O",
    "Assigned Label": "false"
  },
  {
    "Molecule": "CCn1c(=O)c2c(nc(/C=C/c3cc(C(F)(F)F)cc(C(F)(F)F)c3)n2C)n(CC)c1=O",
    "Assigned Label": "false"
  },
  {
    "Molecule": "CCn1c(=O)c2c(nc(/C=C/c3ccc(F)cc3)n2C)n(CC)c1=O",
    "Assigned Label": "false"
  },
  {
    "Molecule": "CCn1c(=O)c2c(nc(/C=C/c3cccc([N+](=O)[O-])c3)n2C)n(CC)c1=O",
    "Assigned Label": "false"
  },
  {
    "Molecule": "COc1ccc(/C=C/c2nc3c(c(=O)n(C)c(=O)n3C)n2C)c(C)c1C",
    "Assigned Label": "true"
  },
  {
    "Molecule": "CCn1c(=O)c2c(nc(/C=C/c3cccc(Cl)c3)n2C)n(CC)c1=O",
    "Assigned Label": "false"
  }
]

Source of measurements: patent EP0590919A1
